Overview of recorded bioavailability for various molecules
Experiment Description: Bioavailability in rat at 10 umol/kg, ip
Type: ADME, organism-based
Measurement Parameters: in vivo
Experimental Endpoint: bioavailability (%)

molecule="COc1ccc(CC(=O)NC(N/C(=N/C#N)Nc2cccc3ncccc23)C(C)(C)C)cc1OC (stereo not given)" scale_unit=% observed_value=79
molecule="Cc1ncccc1N/C(=N\\C#N)NC(NC(=O)Cc1ccc(F)cc1)C(C)(C)C (stereo not given)" scale_unit=% observed_value=52
molecule="Cc1ncccc1NC(=NC(NC(=O)Cc1ccc(Cl)cc1)C(C)(C)C)NC#N (stereo not given)" scale_unit=% observed_value=54
molecule="CC(C)(C)C(NC(=O)Cc1ccc(Cl)cc1)N/C(=N/C#N)Nc1cccc2ncccc12 (stereo not given)" scale_unit=% observed_value=66
molecule="COc1ccc(CC(=O)NC(NC(=NC#N)Nc2ccccc2C)C(C)(C)C)cc1OC (stereo in doubt; 13)" scale_unit=% observed_value=90

====

Overview of reported pIC50 across a group of compounds:
Measurement Target: P2X purinoceptor 7 (Rattus norvegicus)
Experiment Description: Antagonist activity at rat cloned P2X7 receptor expressed in HEK293 cells assessed as inhibition of calcium flux by FLIPR assay
pIC50: −log10 of the molar value.
Experimental Endpoint: pIC50

compound="COc1ccc(CCC(=O)NC(N/C(=N/C#N)Nc2ccccc2C)C(C)(C)C)cc1 (stereo not drawn)" experimental_endpoint=pIC50 observed_value=6.60
compound="COc1ccc(CC(=O)NC(N/C(=N/C#N)Nc2cccnc2C)C(C)(C)C)cc1OC (stereo not drawn)" experimental_endpoint=pIC50 observed_value=6.80
compound="CSc1ccc(CC(=O)NC(N=C(NC#N)Nc2cccnc2C)C(C)(C)C)cc1 (stereo not drawn)" experimental_endpoint=pIC50 observed_value=7.50

====

Measurement Target: P2X purinoceptor 7 (Homo sapiens)
Experiment Description: Antagonist activity at human cloned P2X7 receptor expressed in HEK293 cells assessed as inhibition of calcium flux by FLIPR assay
pIC50: −log10 of the molar value.
Give yes (1) when the value for pIC50 is at least 7. Give no (0) when it is less.

molecule="COc1ccc(CC(=O)NC(N/C(=N/C#N)Nc2cccc3cccnc23)C(C)(C)C)cc1OC (centres undefined)" measurement_target="P2X purinoceptor 7 (Homo sapiens)" assigned_label="no (0)"
molecule="Cc1ncccc1NC(=NC(NC(=O)Cc1ccc(Cl)cc1)C(C)(C)C)NC#N (centres undefined)" measurement_target="P2X purinoceptor 7 (Homo sapiens)" assigned_label="yes (1)"
molecule="COc1ccc(CC(=O)NC(NC(=NC#N)Nc2ccccc2C)C(C)(C)C)cc1OC (stereo in doubt; (-)-13)" measurement_target="P2X purinoceptor 7 (Homo sapiens)" assigned_label="no (0)"
molecule="COc1ccc(CC(=O)NC(N=C(NC#N)Nc2ccc(F)cc2)C(C)(C)C)cc1OC (centres undefined)" measurement_target="P2X purinoceptor 7 (Homo sapiens)" assigned_label="no (0)"
molecule="COc1ccc(CC(=O)NC(N/C(=N/C#N)Nc2cccc3cnccc23)C(C)(C)C)cc1OC (centres undefined)" measurement_target="P2X purinoceptor 7 (Homo sapiens)" assigned_label="no (0)"

====

Measurement Target: P2X purinoceptor 7 (Homo sapiens, UniProt Q99572)
Sequence (Q99572 whole entry): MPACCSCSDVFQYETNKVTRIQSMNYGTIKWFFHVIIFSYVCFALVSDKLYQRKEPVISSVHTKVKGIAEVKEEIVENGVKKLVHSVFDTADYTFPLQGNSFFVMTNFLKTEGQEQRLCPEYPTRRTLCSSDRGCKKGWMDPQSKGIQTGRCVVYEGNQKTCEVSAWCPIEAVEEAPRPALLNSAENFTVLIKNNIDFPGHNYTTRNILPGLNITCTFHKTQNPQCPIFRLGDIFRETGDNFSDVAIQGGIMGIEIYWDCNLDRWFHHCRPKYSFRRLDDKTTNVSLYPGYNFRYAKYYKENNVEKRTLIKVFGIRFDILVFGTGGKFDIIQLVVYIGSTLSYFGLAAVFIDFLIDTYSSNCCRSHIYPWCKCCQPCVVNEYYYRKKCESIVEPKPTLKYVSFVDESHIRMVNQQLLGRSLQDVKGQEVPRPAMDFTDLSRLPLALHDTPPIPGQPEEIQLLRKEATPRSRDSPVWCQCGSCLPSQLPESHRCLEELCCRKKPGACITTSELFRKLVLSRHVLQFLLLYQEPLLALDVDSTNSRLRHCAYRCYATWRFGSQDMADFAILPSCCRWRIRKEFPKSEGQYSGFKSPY
Experiment Description: Antagonist activity at human cloned P2X7 receptor expressed in HEK293 cells assessed as inhibition of calcium flux by FLIPR assay
Experimental Endpoint: IC50 (nM)

compound="COc1ccc(CCC(=O)NC(N=C(NC#N)Nc2ccccc2C)C(C)(C)C)cc1OC (stereo not given)" measurement_target="P2X purinoceptor 7 (Homo sapiens, UniProt Q99572)" scale_unit=nM observed_value=200
compound="COc1ccc(CC(=O)NC(NC(=NC#N)Nc2c(F)cc(F)cc2F)C(C)(C)C)cc1OC (stereo not given)" measurement_target="P2X purinoceptor 7 (Homo sapiens, UniProt Q99572)" scale_unit=nM observed_value=100
compound="CSc1ccc(CC(=O)NC(N=C(NC#N)Nc2cccnc2C)C(C)(C)C)cc1 (stereo not given)" measurement_target="P2X purinoceptor 7 (Homo sapiens, UniProt Q99572)" scale_unit=nM observed_value=20
compound="COc1ccc(CCCC(=O)NC(NC(=NC#N)Nc2ccccc2C)C(C)(C)C)cc1 (stereo not given)" measurement_target="P2X purinoceptor 7 (Homo sapiens, UniProt Q99572)" scale_unit=nM observed_value=79.4
compound="COc1ccc(CC(=O)NC(N/C(=N/C#N)Nc2cccnc2Cl)C(C)(C)C)cc1OC (stereo not given)" measurement_target="P2X purinoceptor 7 (Homo sapiens, UniProt Q99572)" scale_unit=nM observed_value=79.4

====

Test system: Rattus norvegicus
Experiment Description: Antinociceptive activity in ip dosed rat L5-L6 spinal nerve ligation model of neuropathic pain assessed as reduction in tactile allodynia
Assay type: functional
Measurement Parameters: Rattus norvegicus, Spinal nerve, ip
Experimental Endpoint: ED50 (µmol/kg)

compound="COc1ccc(CC(=O)NC(N/C(=N/C#N)Nc2ccccc2C)C(C)(C)C)cc1OC (stereo in doubt; 13)" experimental_endpoint=ED50 scale_unit=µmol/kg censoring_operator== observed_value=77
compound="CC(C)(C)C(NC(=O)Cc1ccc(Cl)cc1)N/C(=N/C#N)Nc1cccc2ncccc12 (stereo not given)" experimental_endpoint=ED50 scale_unit=µmol/kg censoring_operator== observed_value=55
compound="Cc1ncccc1N/C(=N\\C#N)NC(NC(=O)Cc1ccc(F)cc1)C(C)(C)C (stereo not given)" experimental_endpoint=ED50 scale_unit=µmol/kg censoring_operator=> observed_value=300
compound="COc1ccc(CC(=O)NC(N/C(=N/C#N)Nc2cccc3ncccc23)C(C)(C)C)cc1OC (stereo not given)" experimental_endpoint=ED50 scale_unit=µmol/kg censoring_operator== observed_value=41
compound="Cc1ncccc1N/C(=N\\C#N)NC(NC(=O)Cc1ccc(Cl)cc1)C(C)(C)C (stereo not given)" experimental_endpoint=ED50 scale_unit=µmol/kg censoring_operator== observed_value=38

====

Measurement Target: P2X purinoceptor 7 (Rattus norvegicus)
Sequence (Q64663 whole entry): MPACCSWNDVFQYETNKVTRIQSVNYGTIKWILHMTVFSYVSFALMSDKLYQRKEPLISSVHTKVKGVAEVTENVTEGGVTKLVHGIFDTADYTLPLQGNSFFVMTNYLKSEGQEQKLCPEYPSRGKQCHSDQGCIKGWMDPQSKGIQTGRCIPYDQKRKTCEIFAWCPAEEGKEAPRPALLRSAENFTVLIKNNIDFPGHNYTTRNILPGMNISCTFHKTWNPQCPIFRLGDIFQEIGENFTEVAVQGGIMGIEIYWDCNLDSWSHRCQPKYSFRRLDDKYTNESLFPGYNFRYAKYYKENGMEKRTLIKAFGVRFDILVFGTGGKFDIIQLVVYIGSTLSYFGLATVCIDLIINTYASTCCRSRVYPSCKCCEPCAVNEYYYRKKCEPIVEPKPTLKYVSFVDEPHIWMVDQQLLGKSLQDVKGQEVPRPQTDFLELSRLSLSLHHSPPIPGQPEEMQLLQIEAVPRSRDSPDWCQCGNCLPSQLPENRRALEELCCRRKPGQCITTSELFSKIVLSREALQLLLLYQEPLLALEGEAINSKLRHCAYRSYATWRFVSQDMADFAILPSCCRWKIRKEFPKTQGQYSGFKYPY
Experiment Description: Antagonist activity at rat cloned P2X7 receptor expressed in HEK293 cells assessed as inhibition of calcium flux by FLIPR assay
Experimental Endpoint: IC50

compound="COc1ccc(CC(=O)NC(NC(=NC#N)Nc2ccccc2C)C(C)(C)C)cc1OC (stereo in doubt; 13)" experimental_endpoint=IC50 observed_value="12.6 nM"
compound="COc1ccc(CC(=O)NC(NC(=NC#N)Nc2cccnc2OC)C(C)(C)C)cc1OC (centres undefined)" experimental_endpoint=IC50 observed_value="39.8 nM"
compound="COc1ccc(CC(=O)NC(N/C(=N/C#N)Nc2cccc(F)c2F)C(C)(C)C)cc1OC (centres undefined)" experimental_endpoint=IC50 observed_value="100 nM"
compound="COc1ccc(CC(=O)NC(N=C(NC#N)Nc2ccc(F)cc2)C(C)(C)C)cc1OC (centres undefined)" experimental_endpoint=IC50 observed_value="20 nM"
compound="COc1ncccc1NC(=NC#N)NC(NC(=O)c1ccc(Cl)cc1)C(C)(Cl)Cl (centres undefined)" experimental_endpoint=IC50 observed_value="50.1 nM"
compound=O=C(CC12CC3CC(CC(C3)C1)C2)Nc1ccc2[nH]ncc2c1 experimental_endpoint=IC50 observed_value="501 nM"
compound="COc1ccc(CC(=O)NC(N=C(NC#N)Nc2cccc(F)c2)C(C)(C)C)cc1OC (centres undefined)" experimental_endpoint=IC50 observed_value="79.4 nM"
compound="Cc1ncccc1NC(=NC(NC(=O)Cc1ccc(Cl)cc1)C(C)(C)C)NC#N (centres undefined)" experimental_endpoint=IC50 observed_value="39.8 nM"
compound="COc1cc(OC)cc(C(=O)NC(N/C(=N/C#N)Nc2cccnc2C)C(C)(Cl)Cl)c1 (centres undefined)" experimental_endpoint=IC50 observed_value="1000 nM"
compound="COc1ccc(CC(=O)NC(N/C(=N/C#N)Nc2ccccc2C)C(C)(C)C)cc1 (centres undefined)" experimental_endpoint=IC50 observed_value="31.6 nM"
compound="COc1cc(CC(=O)NC(N/C(=N/C#N)Nc2ccccc2C)C(C)(C)C)cc(OC)c1 (centres undefined)" experimental_endpoint=IC50 observed_value="63.1 nM"
compound="COc1ccc(CC(=O)NC(NC(=NC#N)Nc2ccccc2C)C(C)(C)C)cc1OC (stereo in doubt; (-)-13)" experimental_endpoint=IC50 observed_value="501 nM"
compound="Cc1ccccc1NC(=NC(NC(=O)CCCc1ccccc1)C(C)(C)C)NC#N (centres undefined)" experimental_endpoint=IC50 observed_value="25.1 nM"
compound="COc1ccc(CC(=O)NC(N/C(=N/C#N)Nc2cccc3cccnc23)C(C)(C)C)cc1OC (centres undefined)" experimental_endpoint=IC50 observed_value="158 nM"
compound="CC(C)(C)C(NC(=O)CCCc1cccnc1)N/C(=N/C#N)Nc1cccc2ncccc12 (centres undefined)" experimental_endpoint=IC50 observed_value="39.8 nM"
compound="CC(Cl)(Cl)C(NC(=O)c1ccc(Cl)cc1)NC(=NC#N)Nc1cccnc1Cl (centres undefined)" experimental_endpoint=IC50 observed_value="126 nM"
compound="COc1ccc(C(=O)NC(N=C(NC#N)Nc2ccccc2C)C(C)(C)C)cc1OC (centres undefined)" experimental_endpoint=IC50 observed_value="631 nM"
compound="COc1ccc(C(=O)NC(N=C(NC#N)Nc2ccccc2C)C(C)(C)C)cc1 (centres undefined)" experimental_endpoint=IC50 observed_value="2510 nM"
compound="COc1ccc(CC(=O)NC(N=C(NC#N)NCc2ccccc2Cl)C(C)(C)C)cc1OC (centres undefined)" experimental_endpoint=IC50 observed_value="200 nM"
